tested on: HL-60(TB) leukemia; test: NCI-60 one-dose screen, 48 h (100 = growth as untreated, 0 = no growth, -100 = all killed); details: 10 µM unless noted
This is part of a sample that, as a whole, favours compounds with a hit. Of some 83,000 tested, about 20% had one in any assay.
endpointName: growth (%)
Numbers only here, please. The scale is %.

Query block: Note growth for the compound shown: CNCc1cccc2c1OCCOCCOCCN(C)S(=O)(=O)c1ccc(cc1)-c1cnc(N)c(n1)C(=O)N2
Result block: -37

Query block: Note growth for the compound shown: O=C(/C=C/C12c3ccccc3C(c3ccccc31)C1C(=O)NC(=O)C12)c1ccccn1 (stereo not drawn)
Result block: -11.5

Query block: Note growth for the compound shown: O=C([C@H]1C[C@H]1c1ccc(S(F)(F)(F)(F)F)cc1)N1CCN(c2cc(Cl)ccc2C(F)(F)F)CC1
Result block: 83.5

Query block: Note growth for the compound shown: Cc1cc2ccccc2nc1-c1ccccc1F
Result block: 97.4

Query block: Note growth for the compound shown: CCN1CCN(c2nc(C)cc(N(CCNc3ccnc4cc(Cl)ccc34)Cc3ccc4c(c3)OCO4)n2)CC1
Result block: -57.7

Query block: Note growth for the compound shown: COc1ccccc1N1CCN(CCn2c(=O)c3c(c4ccccc4n3C)n(C)c2=O)CC1
Result block: 109

Query block: Note growth for the compound shown: COc1cc(C2CC(c3ccc(Cl)cc3)=NN2C(C)=O)ccc1Oc1nc2c(c(=O)n(C)c(=O)n2C)n1C (stereo not drawn)
Result block: 94.2

Query block: Note growth for the compound shown: O=C(c1nc2ccccc2[nH]1)C1C(c2ccc(Cl)cc2)C2CC3CCCC[C@H]3N2[C@@]12C(=O)Nc1cc(Cl)ccc12 (stereo partly drawn)
Result block: 23.8

---

tested on: RPMI-8226 leukemia; experiment: NCI-60 one-dose screen, 48 h (100 = growth as untreated, 0 = no growth, -100 = all killed); conditions: 10 µM unless noted
The panel holds about 83,000 compounds, 20% with a hit somewhere; the sample as a whole holds those more often.
Kindly supply the reported growth values for the records listed here.
Numbers only here, please. The scale is %.

Query block: Note growth for the compound shown: COc1cc(C2(C#N)CCN(C)CC2)cc(OC)c1OC
Result block: 106

Query block: Note growth for the compound shown: CCOc1cc(/C=N\Nc2nnc(C)n2N)c(C)cc1N(CCCl)CCCl
Result block: -37.9

Query block: Note growth for the compound shown: CC(C)OC(=S)[S-].[Au+].c1ccc([PH+](c2ccccc2)c2ccccc2)cc1
Result block: 3.19

Query block: Note growth for the compound shown: CNC(=O)Oc1ccccc1
Result block: 96.4

Query block: Note growth for the compound shown: CC12CCC3C(CC=C4CC(O)CCC43C)C1C/C(=C\N1CCOCC1)C2=O (centres undefined)
Result block: 102

Query block: Note growth for the compound shown: COc1cc(N(CCCl)CCCl)ccc1C=Nc1ccccc1C(=O)O
Result block: 97.2

Query block: Note growth for the compound shown: CCC(CO)NC1CCCCC1 (centres undefined)
Result block: 97.6

Query block: Note growth for the compound shown: COc1cc2c(cc1OC)CN(C)C(C)C2 (centres undefined)
Result block: 105

Query block: Note growth for the compound shown: CNC(=O)Oc1cc(C(C)C)ccc1Sc1ccc(C(C)C)cc1OC(=O)NC
Result block: 51.2

This collection of values is drawn from PubChem BioAssay (NCI).
